The reported measurements were obtained from paper PMC12621043.

biological target: MAPK1A (Homo sapiens); construct: purchased in-house DSF kinase panel (SGC-style construct names; the trailing letter is the construct ID); experiment: DSF Tm panel; format: binding; details: 10 μM compound
Sequence (P28482 whole entry): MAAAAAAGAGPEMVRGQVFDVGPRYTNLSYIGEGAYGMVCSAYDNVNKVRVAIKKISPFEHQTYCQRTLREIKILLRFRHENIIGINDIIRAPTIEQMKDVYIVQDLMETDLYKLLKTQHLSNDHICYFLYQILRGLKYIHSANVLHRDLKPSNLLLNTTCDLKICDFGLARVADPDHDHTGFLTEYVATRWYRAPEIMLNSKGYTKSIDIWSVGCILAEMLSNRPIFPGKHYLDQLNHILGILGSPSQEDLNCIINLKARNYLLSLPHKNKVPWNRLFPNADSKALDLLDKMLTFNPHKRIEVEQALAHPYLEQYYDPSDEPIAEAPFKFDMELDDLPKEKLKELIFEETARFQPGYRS
Mark True only for ΔTm at 10 µM values smaller than 0.7 °C; exact matches and larger values are False.

For Cc1cc(Cl)ccc1CNC(=O)Nc1ccc2cc1OCCOCCNc1ccn3ncc-2c3n1 , is the recorded ΔTm at 10 µM below the cut-off of 0.7 °C? False

In the record for O=C(NCc1ccccc1C(F)(F)F)Nc1ccc2cc1OCCOCCNc1ccn3ncc-2c3n1 , is ΔTm at 10 µM less than 0.7 °C? False

Does the reported ΔTm at 10 µM of O=C(NCc1ccc(C(F)(F)F)cc1)Nc1ccc2cc1OCCOCCNc1ccn3ncc-2c3n1 stay below 0.7 °C? False

***
hey, is ΔTm at 10 µM for Cc1ccc(F)cc1CNC(=O)Nc1ccc2cc1OCCOCCNc1ccn3ncc-2c3n1 lower than 0.7 °C or not? False

# TODO verify ΔTm at 10 µM < 0.7 °C strictly for this compound: O=C(NCc1ccc(Cl)cc1Cl)Nc1ccc2cc1OCCOCCNc1ccn3ncc-2c3n1 False

ΔTm at 10 µM strictly < 0.7 °C for this compound? O=C(NCc1ccc(Cl)cc1F)Nc1ccc2cc1OCCOCCNc1ccn3ncc-2c3n1 True

Is it true that ΔTm at 10 µM reported for CN1CCN(C(=O)Nc2ccc3cc2OCCOCCNc2ccn4ncc-3c4n2)CC1 is less than 0.7 °C? True

Problem: For the compound O=C(NCc1ccccc1Cl)Nc1ccc2cc1OCCOCCNc1ccn3ncc-2c3n1 , is ΔTm at 10 µM under 0.7 °C? True

Input COc1cc(CNC(=O)Nc2ccc3cc2OCCOCCNc2ccn4ncc-3c4n2)ccc1F ; condition: ΔTm at 10 µM strictly below 0.7 °C. Does it hold? False

Report whether reported ΔTm at 10 µM is lower than 0.7 °C (strictly) for O=C(NCc1ccc(Cl)cc1)Nc1ccc2cc1OCCOCCNc1ccn3ncc-2c3n1 True

Lab log: compare recorded ΔTm at 10 µM with 0.7 °C; is it strictly lower for COc1cccc(CNC(=O)Nc2ccc3cc2OCCOCCNc2ccn4ncc-3c4n2)c1 ? True

Record O=C(NCc1ccccc1)Nc1ccc2cc1OCCOCCNc1ccn3ncc-2c3n1 : is its ΔTm at 10 µM strictly below 0.7 °C? True

Would you kindly verify if ΔTm at 10 µM of COc1ccc(CNC(=O)Nc2ccc3cc2OCCOCCNc2ccn4ncc-3c4n2)cc1 is strictly less than 0.7 °C? False

###

biological target: EPHA7A (Homo sapiens, UniProt Q15375); construct: purchased in-house DSF kinase panel (SGC-style construct names; the trailing letter is the construct ID); assay: DSF Tm panel; format: binding; settings: 10 μM compound
Sequence (Q15375 590-899): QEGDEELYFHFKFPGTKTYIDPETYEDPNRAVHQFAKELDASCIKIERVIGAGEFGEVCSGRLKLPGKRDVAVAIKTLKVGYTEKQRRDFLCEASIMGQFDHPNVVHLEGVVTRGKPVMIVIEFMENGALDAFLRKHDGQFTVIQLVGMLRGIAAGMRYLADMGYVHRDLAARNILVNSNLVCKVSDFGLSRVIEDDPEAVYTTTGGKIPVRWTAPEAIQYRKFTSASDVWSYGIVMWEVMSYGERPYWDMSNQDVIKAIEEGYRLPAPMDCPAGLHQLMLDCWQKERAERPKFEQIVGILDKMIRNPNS
attribute_measured: ΔTm at 10 µM
Note to self: number, then unit, no commentary.

Here are 3 molecules together with their reported answers.
Identify measured ΔTm at 10 µM associated with O=C(NCc1ccc(Cl)cc1F)Nc1ccc2cc1OCCOCCNc1ccn3ncc-2c3n1 [compound 21] 1.9 °C

Quick one: give measured ΔTm at 10 µM for O=C(NCc1ccccc1Cl)Nc1ccc2cc1OCCOCCNc1ccn3ncc-2c3n1 [compound 17] 0.4 °C

For the molecule O=C(NCc1ccc(C(F)(F)F)cc1)Nc1ccc2cc1OCCOCCNc1ccn3ncc-2c3n1 [compound 28] , give its reported ΔTm at 10 µM. 3.5 °C

Here's the next entry for you.
Read off the recorded ΔTm at 10 µM for COc1ccc(CNC(=O)Nc2ccc3cc2OCCOCCNc2ccn4ncc-3c4n2)cc1F [compound 32] 2.9 °C
